test: yeast display, Sf9 membrane polyspecificity reagent, FACS + sequencing; frameworks hold sequencing errors
READOUT_NAME: polyreactivity (PSR sort gate)

SEQUENCE_INPUT	READOUT_NAME	TEST_RESULT
QVQLVESGRGLVQAGGSLRLSCAASGSIFISYAKGWYRQAPGKERELVAAITWSGDSTYYADSVKGRFTISRDNAKNTVYLQMNSLKPEDTAVYYCAKGQSRSLIYGRYGYWGQGTQVTVSS	polyreactivity (PSR sort gate)	low polyreactivity
QVQLVDSGGGLVQAAGSLRLSCAASGSIFIFNTMGWYRQAPGKESELVASISSSGSTYYADSVKGRFTISRDNAKNTVYLQMKSLKPEDTAVYYCAATYYRPAYYGSYYYWGQGTQVTVSS	polyreactivity (PSR sort gate)	low polyreactivity
QVQLVESGGGLVQAGGSLRLSCAASGRTLRHYAMGWYRQAPGKERELVAAISSTGSSTYYADSVKGRFTISRDNAKNTVYLQMNSLKPEDTAVYYCAADKYTWDAGGVDYWGQGTQVTVSS	polyreactivity (PSR sort gate)	low polyreactivity
QVQLVESGGGLVQAGGSLRLSCAASGIIFYYYTMGWYRQAPGKETELVASITWSGGGSTYYADSVKGRFTISRDNAKNTVYLQMNSLKPEDTAVYYCNADEYYSYDYWGQGTQVTVSS	polyreactivity (PSR sort gate)	low polyreactivity

---

test: yeast display, Sf9 membrane polyspecificity reagent, FACS + sequencing; frameworks hold sequencing errors
READOUT_NAME: polyreactivity (PSR sort gate)

Example entries and their recorded answers appear below.
SEQUENCE_INPUT	polyreactivity (PSR sort gate)
QVQLVESGGGLVQAGGSLRLSCAASGSIFTDNAMGWYKQAPGKERELVAVISSGGRTYYADSVKGRFTISRDNAKNTVYLQMNSLKPEDTAVYYCKGQKRYPFSGIEDYWGQGTQVNVSS	high polyreactivity
QVQLVESGGGLVQAGGSLRLSCAASGSTFGYYGMGRYRQAPGKERELVASIDSRGDSTYADSVKGRFTISRDNAKNTVYLQMNSLKPEDTSVYYCADDSWYTWFDSWGQGTQVTVSS	low polyreactivity
QVQLVESGGGLVQAGGSLRLSCAASGSTFTDYAMGWYRQAPGKERELVAAIDSGGITNYADSVKGRFTISRDNAKNTVYLQMNSLKPEDTAVYYCNADSSKFYSHGEYEYWGQGTQVTVSS	low polyreactivity
QVQLVESGGGLVQAGGSLRLSCAASGSIFTRNAMGWYRQAPGKERELVAAISRGGGTNYADSVKGRFTISRDNAKNTVYLQMNSLKPEDTAVYYCAKGWLPNGIPTYFRPYGLDYWGQGTQVTVSS	high polyreactivity

I'd like to know its polyreactivity (PSR sort gate). The sequence in question is QLQLQESGGGLVQAGGSLRLSCAESGTIFGWDRMGRYRQAPGKERELVATIDNRGSTNYADSVKGRFTISRDNAKNTLFPQMNSLKPDDTEVYYCAVVGPTPQYHLYWGEGTQVTVSS
high polyreactivity

---

experiment: yeast display, Sf9 membrane polyspecificity reagent, FACS + sequencing; frameworks hold sequencing errors

SEQUENCE_INPUT	polyreactivity (PSR sort gate)
QVQLVESGGGLVQPGGSLRLSCAASGRTIGVYAMGWYRQAPGKERELVAAITTSGDSTYYADSVKGRFTISRDNAKNTVYLQMNSLKPEDTAVYYCAADYYYVYSSFGHYYWGQGTQVTVSS	low polyreactivity
QVHLVESGGGLVQAGGSLRLSCAASGLTFYSNAMRWYRQAPGKERELVARISTGGSTYADSVKGRFTISRDNAKNTVYLQMNSLKPEDTGVFYCAKLPPRGIDDEYWGQATQVTVSS	low polyreactivity
QVQLVESGGGLVQAGGSLRLSCAASGSTFQLYAMGWDRQAPGKERELVAAITSSAGRTYYADSVKGRFTISRDNAKNTVYLQMNSLKPEDTAVYYCAKDGSFTFWGQGTQVTVSS	low polyreactivity

---

assay: yeast display, Sf9 membrane polyspecificity reagent, FACS + sequencing; frameworks hold sequencing errors
READOUT_NAME: polyreactivity (PSR sort gate)

Example entries and their recorded answers appear below.
SEQUENCE_INPUT	READOUT_NAME	TEST_RESULT
QVQLVESGGGLVQPGGSLRLSCAASGRTFGYNAMGWYRQAPGKERELVAAIRYSGGSTYYADSVKGRFTISRDNAKNTVYLQMNSLKPEDTAVYYCAAYSLFSSYGNDYWGQGTQVTVSS	polyreactivity (PSR sort gate)	high polyreactivity
QVHLVESGGGLVMAVGSLRLSCAASGFTFVGYAMGWYRQAPGKERELVATITRVGSTNYADSVKGRFTISRDNAKNTVYLQMNSLKPEDTAVYYCNTRRVYGHGKSPYDSWGQGTQVTVSS	polyreactivity (PSR sort gate)	low polyreactivity
QVQLVESGGGLVQAGGSLRLSCAASGSIFVSYAMGWYRQAPGKEREFVAAITRSGGSTYYADSVKGRFTISRDNAKNTVYLQMNSLKPEDTAVYYCAARSYLGAYRRYYWGQGTQVTVSS	polyreactivity (PSR sort gate)	high polyreactivity
QVQLVESGGVLVQAGGSLRLSCAASGRILFSYGMGWYRQATGKERELVARISWSGGNTHYADSVKGRFTISRDNAKNTVYLQMNSLKPEDTAVYYCNAYYTYWYPRYDYWGQGTQVTVSS	polyreactivity (PSR sort gate)	low polyreactivity

I'd like to know its polyreactivity (PSR sort gate). The sequence in question is QVQLVVSGGGLVQAGGSLRLSCAASGITFYEYAMGWYRQSPGKESELVATITSGGNTNYADSVKGRFTISRDNAKNTGYLLMNSLIPEDTSVYYCAASVGYYSRYGYGYWGQGTQVTVSS
low polyreactivity

I'd like to know its polyreactivity (PSR sort gate). The sequence in question is QVQLVESGGGLVQSGGSLRLSCAASGGTFVPYAMGWDIQAPGKERELVARISKRGGTTYYADSVKGRFTISRDTAKITVYLQMNSLKPEDTAVSSCAAVLPARGYYWGQGTQVTVSS
high polyreactivity

I'd like to know its polyreactivity (PSR sort gate). The sequence in question is QVQRVESVGGLVQAGGSLRLICAASGRIFQVNAIGWYRQAPGKERELVAAITYSGGTTYYADSVKGRFTISRDNAKNTVYLQMNSLKPEDTAVYYCAAEGYGALGDPWQYGYEYWGQGTQVTVSS
low polyreactivity

I'd like to know its polyreactivity (PSR sort gate). The sequence in question is QVQLVESGRGLVQAGGSLRLSCAASGRTFWYYAMGWYRQAPGKERELDARISSSGGSTYADSVKGRFTISRDNAKNTVYLHMNSLKPEDTAVYYCAADRHYWKADPSQGYQHYYWGQGTQVTVSS
high polyreactivity

I'd like to know its polyreactivity (PSR sort gate). The sequence in question is QVQLVESGGGLVQAGGSLRLSCAASGGTFYVKDMAWYRQAPWNERDLVATITYSGTSTYYADSVKGRFTISRDNAKNTVYLQMKSLKPEDTAVYYCATDVLLYFEPVNLDYWGQGTQVTVSS
low polyreactivity

I'd like to know its polyreactivity (PSR sort gate). The sequence in question is QVQLVESGGGLVQAGGSLRLSCAASGSTLGRNAMGWDRQAPGKEREFVAAITYSTGSTYYADSVKGRFTISRDNAKNTVYVQMNSLKPEDTAVYYCAKGRLTRGYVTFEYWGQGTQVTGSS
high polyreactivity

I'd like to know its polyreactivity (PSR sort gate). The sequence in question is QVQLVESGGGLVQAGGSLRISCAASGRIFVVYVMGWYRQAPGKEREFVAAITWGGGNTYYADSVKGRFTISRDNAKNTVYLQMNSLKPEDTAVYYCNAVWYWGDMDYWGQGTQVTVSS
low polyreactivity

---

test: yeast display, Sf9 membrane polyspecificity reagent, FACS + sequencing; frameworks hold sequencing errors
READOUT_NAME: polyreactivity (PSR sort gate)

Example entries and their recorded answers appear below.
SEQUENCE_INPUT	READOUT_NAME	TEST_RESULT
QVQLVESGGGLVQAGGSLRLSCAASGSTFIWNGMGWYRQAPGKERELVAAITSSSTNYADSVKGRFTISRDNAKNTVYLQMNSLKPEDTAVYYCAAEIYPLGSLRLGPGEYDHWGQGTQVTVSS	polyreactivity (PSR sort gate)	low polyreactivity
QVQLVESGGGIVQAGGSLRLSCAASGSTFPHNAMGWYRQAPGKERQLVAALSVGGGSTHYADSVKGRFTISRDNAKNTVYLQMNSLKPEDTAVYYCAKDYAYQYSFVTYDYWGQGTQVTVSS	polyreactivity (PSR sort gate)	low polyreactivity
QVQLVESGGGLVQAGGSLRLSCAASGSIFRLNAMGWYRQAPGKERELVAAITSSGGNTYYADSVKGRFTISRDNAKNTVYLQMNSLKPEDTAVYYCATRAYARWYGYWGQGTQVTVSS	polyreactivity (PSR sort gate)	low polyreactivity
QLQLVESGGGLVQAGGSLRLSCAASGRIFRGYAMGWYRQAPGKERELVAAISGSGGSTYYADSVKGRFTISRDNAKNSVYLQMNSLKPEDTAVYYCAAEGRNYYGSYDYWGQGTQVTVSS	polyreactivity (PSR sort gate)	low polyreactivity
QVHLVESGGGLVQAGGSLRLSCAASGSTLVTNAIGWYRQAPGKERELVAAITFSGGTTYYADSVKGRFTISRDNAKNTVYLQLNSLKPEDTAVYYCAAENWLEYVGYDFWGQGTHVTVSS	polyreactivity (PSR sort gate)	high polyreactivity

I'd like to know its polyreactivity (PSR sort gate). The sequence in question is QVQLVEAGGCLVQAGGSLRLSCAASGRIFRFYTMGWYRQAPGNERELVAAIRYSSVSTYYADSVKGRFTISRDNAKNTVYLQMNSLKPEDTAVYYCDAVHRSYVKTYNYWGLGTQVTVSS
high polyreactivity

I'd like to know its polyreactivity (PSR sort gate). The sequence in question is QVQLVESGGGLVQAGGSLRLSCAASGFTFDYYDMGWYRQAPGKERELVAGITYSGGRTRYADSVKGRFTISRDNAKNTVYLQMNSLKPEDTAVYYCAARPGYPYRMNYWGQGTQVTVSS
low polyreactivity

I'd like to know its polyreactivity (PSR sort gate). The sequence in question is QVQLVESGRGLVQAGGSLRLSSAASGSTFVNYDMGWYRQATGKERELVAAITSSGDSTYYADSVKGRFTISRDNAKNTVYLQMNSLKPEDTAVYYCNRDDAGIMDYWGQGTQVTVSS
low polyreactivity

I'd like to know its polyreactivity (PSR sort gate). The sequence in question is QVQLVESGGGLVQAGGSLRLSCAASGYTFGSNAMGWYRQAPGKERELVAAIRYRGDRTYYADSVKGRFTISRDNAKNTVYLQMNSLKPEDTAVYYCAATYGYNTLYRPLRFDYWGQGTQVTVSS
high polyreactivity

I'd like to know its polyreactivity (PSR sort gate). The sequence in question is QVQLVESGGGLVQAGGSLRLSCAASGRIFRWYAMGWYRQAPGKERELVASISRGGSTYYADSVKGRFTISRDNAKNTVYLQMNSLKPEDTAVYYCNVKYKYDRAYGEYDYWGQGTQVTVSS
high polyreactivity

I'd like to know its polyreactivity (PSR sort gate). The sequence in question is QVQLVESGGGLVQAGGSLRLSCAASGRTFYDYAMGWYRQAPGKEREFVARITYSGGGTYYADSVKGRFTISRDNAKHTVYLQMNSLKPEDTAVYYCARPFNRYLGLTRNGYTSDYWGQGTQVTVSS
high polyreactivity
